Record: IC50 reported on Botulinum neurotoxin type A (Clostridium botulinum).
Sequence (P0DPI0 2-448 limits assumed): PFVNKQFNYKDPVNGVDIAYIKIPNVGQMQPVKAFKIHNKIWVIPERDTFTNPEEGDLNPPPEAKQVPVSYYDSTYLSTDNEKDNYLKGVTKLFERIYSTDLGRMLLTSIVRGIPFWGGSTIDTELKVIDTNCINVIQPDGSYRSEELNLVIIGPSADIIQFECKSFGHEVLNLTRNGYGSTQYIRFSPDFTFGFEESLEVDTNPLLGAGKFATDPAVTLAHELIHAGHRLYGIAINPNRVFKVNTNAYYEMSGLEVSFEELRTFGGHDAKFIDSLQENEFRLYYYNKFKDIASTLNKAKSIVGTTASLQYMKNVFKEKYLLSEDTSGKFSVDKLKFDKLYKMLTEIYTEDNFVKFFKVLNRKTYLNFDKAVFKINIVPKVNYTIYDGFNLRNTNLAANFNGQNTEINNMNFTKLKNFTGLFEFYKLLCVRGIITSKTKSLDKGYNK
Answers are plain numbers, in µM.

Sample records with IC50:
1) O=c1[nH]c2cc3c(cc2c(=O)n1CCc1nc(-c2ccc(C(F)(F)F)cc2)no1)OCO3 : 24
2) COC(=O)c1c(C)nc2n(CCN3CCCCC3)c3ccccc3n12 : 55
3) N=C(N)NCCC[C@H](NC(=O)[C@@H](N)CCCNC(=N)N)C(=O)NCC(=O)N[C@@H](CS)C(=O)O : 31
4) Cc1cc(NC(=S)N(CCCN2CCC[C@@H](C)C2)Cc2cccs2)ccc1Cl : 92
5) CC[C@@H]1Oc2ccccc2N(CC(=O)NCCCN2CCC(Cc3ccccc3)CC2)C1=O : 154

API: the following record is the query input.
The reported IC50 value, Botulinum neurotoxin type A (Clostridium botulinum), for Cc1ccc(-c2nc(SCC(=O)N3CCCC[C@@H]3C)c(S(=O)(=O)c3ccccc3)[nH]2)cc1 reads 159

Source of measurements: ChEMBL document CHEMBL3603798
